Where do these numbers come from? They come from patent US6693108B2.

Molecular target: activated JNK3 (Homo sapiens, UniProt P53779)
Construct: One such construct encodes amino acid residues Ser40-Glu402 of JNK3α1 and is preceded by Met and Gly residues; Met-Gly (initiation Met plus Gly added to create the NcoI site) (N)
Sequence (P53779 40-402): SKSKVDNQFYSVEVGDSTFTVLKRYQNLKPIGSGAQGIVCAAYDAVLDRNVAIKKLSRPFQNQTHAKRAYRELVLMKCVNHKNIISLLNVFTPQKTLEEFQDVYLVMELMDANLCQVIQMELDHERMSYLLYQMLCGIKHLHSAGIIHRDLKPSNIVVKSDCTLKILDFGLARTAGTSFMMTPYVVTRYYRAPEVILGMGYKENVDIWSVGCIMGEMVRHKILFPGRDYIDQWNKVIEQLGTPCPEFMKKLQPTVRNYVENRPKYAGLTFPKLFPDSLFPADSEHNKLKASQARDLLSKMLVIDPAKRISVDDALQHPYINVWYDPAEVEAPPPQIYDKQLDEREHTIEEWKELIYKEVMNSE
Experiment: JNK3 inhibition, spectrophotometric coupled-enzyme assay
Details: read-out: Activity in the JNK3 Inhibition Assay (Ki rating)
Protocol: A BLAST search of the EST database using the published JNK3α1 cDNA as a query identified an EST clone (#632588) that contained the entire coding sequence for human JNK3α1. […] Compounds were assayed for the inhibition of JNK3 by a spectrophotometric coupled-enzyme assay. […] The decrease of absorbance at 340 nm was monitored as a function of time. […]
pKi: −log10 of the molar value.
Catalogue of pKi values

Example cases with answers are listed next.
Cc1onc(-c2ccccc2)c1-c1ccnc(N[C@H]2CC[C@H](O)CC2)n1 = > 7.00
COc1cc(OC)cc(C(=O)Nc2nccc(-c3c(-c4ccccc4C)noc3C)n2)c1 = 6.00 to 7.00
Cc1onc(-c2cccc(F)c2)c1-c1ccnc(Nc2ccccc2)n1 = > 7.00
Cc1cc(Nc2nccc(-c3c(-c4ccccc4)noc3C)n2)ccc1C#N = > 7.00
COc1cc(OC)cc(C(=O)Nc2nccc(-c3c(-c4cccc(C#N)c4)noc3C)n2)c1 = < 6.00

*Q* Identify measured pKi associated with CSc1ccc(Nc2nccc(-c3c(-c4ccccc4)noc3C)n2)cc1
*A* > 7.00

###

Catalogue of pKi values
molecular target: activated JNK3 (Homo sapiens); construct: One such construct encodes amino acid residues Ser40-Glu402 of JNK3α1 and is preceded by Met and Gly residues; Met-Gly (initiation Met plus Gly added to create the NcoI site) (N); assay: JNK3 inhibition, spectrophotometric coupled-enzyme assay; conditions: read-out: Activity in the JNK3 Inhibition Assay (Ki rating)
pKi: −log10 of the molar value.

Example cases with answers are listed next.
Cc1onc(-c2ccccc2)c1-c1ccnc(Nc2ccc(F)cc2F)n1 [IIA-56] = > 7.00
Cc1onc(C(C)(C)C)c1-c1ccnc(Nc2ccccc2)n1 [IIA-90] = > 7.00

Okay, next one:
*Q* Identify measured pKi associated with Cc1onc(-c2ccccc2)c1-c1ccnc(Nc2ccc3c(c2)CCC3=O)n1 [IIAA-11]
*A* > 7.00

###

Catalogue of pKi values
Molecular target: activated JNK3 (Homo sapiens)
Construct: One such construct encodes amino acid residues Ser40-Glu402 of JNK3α1 and is preceded by Met and Gly residues; Met-Gly (initiation Met plus Gly added to create the NcoI site) (N)
Assay: JNK3 inhibition, spectrophotometric coupled-enzyme assay
Conditions: read-out: Activity in the JNK3 Inhibition Assay (Ki rating)
Experimental: A BLAST search of the EST database using the published JNK3α1 cDNA as a query identified an EST clone (#632588) that contained the entire coding sequence for human JNK3α1. […] Compounds were assayed for the inhibition of JNK3 by a spectrophotometric coupled-enzyme assay. […] The decrease of absorbance at 340 nm was monitored as a function of time. […]
pKi: −log10 of the molar value.

Cc1onc(-c2cccc(F)c2F)c1-c1ccnc(Nc2ccccc2)n1 = 6.00 to 7.00
Cc1onc(-c2ccccc2C(F)(F)F)c1-c1ccnc(Nc2ccccc2)n1 = < 6.00
Cc1onc(-c2ccccc2)c1-c1ccnc(NC(=O)c2ccccc2Cl)n1 = < 6.00
Cc1onc(-c2cccc(C#N)c2)c1-c1ccnc(Nc2ccccc2)n1 = 6.00 to 7.00

Okay, next one:
*Q* Identify measured pKi associated with Cc1onc(-c2ccccc2)c1-c1ccnc(Nc2cccc(CO)c2)c1
*A* > 7.00
